Origin of the recorded values: patent US20250296992A1

target: T1, human SLITRK6 on cells (human, UniProt Q9H5Y7 27-841); assay: flow cytometry on RT4 cells
T1 construct: whole, on cells
MEASUREMENT_KIND: EC50 (nM)
Numbers only, in nM.

Before answering, review these 3 worked examples.
1. phA290-LD038 (8) (antibody, V domains shown, drug-linker LD038 on cysteines freed by TCEP reduction, DAR 8.0; positions not given, also called phA290 ADC) VH: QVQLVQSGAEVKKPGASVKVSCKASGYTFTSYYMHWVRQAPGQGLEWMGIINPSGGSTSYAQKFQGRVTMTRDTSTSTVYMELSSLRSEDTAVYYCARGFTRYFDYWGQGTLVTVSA VL: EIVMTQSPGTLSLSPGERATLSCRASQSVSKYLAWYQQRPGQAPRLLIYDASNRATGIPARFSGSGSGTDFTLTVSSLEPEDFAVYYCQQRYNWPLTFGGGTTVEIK ... 0.16
2. phA108-LD038 (8) (antibody, V domains shown, drug-linker LD038 on cysteines freed by TCEP reduction, DAR 8.0; positions not given, also called phA108 ADC) VH: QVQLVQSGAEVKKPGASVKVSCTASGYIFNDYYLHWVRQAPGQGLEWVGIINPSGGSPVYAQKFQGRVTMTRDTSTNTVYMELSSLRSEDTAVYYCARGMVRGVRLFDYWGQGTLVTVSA VL: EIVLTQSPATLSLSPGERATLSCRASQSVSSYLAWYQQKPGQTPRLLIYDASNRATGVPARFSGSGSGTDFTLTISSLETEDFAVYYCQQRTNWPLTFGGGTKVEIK ... 0.16
3. phA290 (antibody, V domains shown, From phage display, then full-length construction; Only the variable regions are tied to the name) VH: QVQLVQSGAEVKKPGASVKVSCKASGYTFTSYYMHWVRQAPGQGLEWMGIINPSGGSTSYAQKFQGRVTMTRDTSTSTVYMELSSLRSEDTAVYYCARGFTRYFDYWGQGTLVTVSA VL: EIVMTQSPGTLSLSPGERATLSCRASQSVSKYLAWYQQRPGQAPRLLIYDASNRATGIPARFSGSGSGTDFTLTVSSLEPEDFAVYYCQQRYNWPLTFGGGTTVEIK ... 0.14

**Q:** Name the recorded EC50 of the item hu14G1-03-LD038 (8) (antibody, V domains shown, drug-linker LD038 on cysteines freed by TCEP reduction, DAR 8.0; positions not given, also called hu14G1-03 ADC) VH: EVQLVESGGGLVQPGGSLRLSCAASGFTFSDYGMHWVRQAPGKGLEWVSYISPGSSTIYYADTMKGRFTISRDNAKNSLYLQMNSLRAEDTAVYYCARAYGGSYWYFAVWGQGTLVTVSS VL: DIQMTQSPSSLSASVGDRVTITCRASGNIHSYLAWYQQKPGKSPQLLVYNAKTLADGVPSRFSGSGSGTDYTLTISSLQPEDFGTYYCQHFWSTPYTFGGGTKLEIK in your answer.
**A:** 0.46
